The measured values listed here are drawn from patent US7285556B2.

biological target: Csk (Homo sapiens); construct: GST (glutathione-S-transferase) (N); made in house; host or cells: E. coli (pGEX vector); assay: Csk tyrosine kinase activity, poly E4Y and 32P-ATP; format: biochemical; settings: screening assay, 50 μg/ml poly E4Y, 0.2 mM 32P-ATP
Sequence (P41240 whole entry, species assumed): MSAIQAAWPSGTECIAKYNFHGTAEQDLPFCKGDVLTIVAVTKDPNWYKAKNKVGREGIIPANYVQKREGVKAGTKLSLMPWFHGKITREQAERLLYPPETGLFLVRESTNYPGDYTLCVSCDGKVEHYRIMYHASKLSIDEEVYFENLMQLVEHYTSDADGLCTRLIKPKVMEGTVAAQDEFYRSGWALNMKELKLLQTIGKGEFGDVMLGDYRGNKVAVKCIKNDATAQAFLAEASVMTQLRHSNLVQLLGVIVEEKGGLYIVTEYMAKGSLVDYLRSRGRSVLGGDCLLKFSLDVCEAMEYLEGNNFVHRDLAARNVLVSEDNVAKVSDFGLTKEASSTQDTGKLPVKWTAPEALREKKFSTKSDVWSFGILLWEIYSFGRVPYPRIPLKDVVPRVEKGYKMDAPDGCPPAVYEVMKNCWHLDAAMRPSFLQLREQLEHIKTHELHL
Recorded IC50 by entry

COc1ccc(C=NNc2ncnc3c(C)c(-c4ccc(CO)cc4)sc23)cc1O [Compound 439]: > 119 µM
CCc1csc2c(NN=Cc3cccnc3)ncnc12 [Compound 257]: > 176 µM
Cc1csc2c(NN=CC3CC=CCC3)ncnc12 (stereo not shown) [Compound 181]: > 184 µM
Cc1csc2c(NN=Cc3cccc(C(=O)O)c3)ncnc12 [Compound 249]: > 160 µM
Cc1ccc(C=NNc2ncnc3c(C)csc23)s1 [Compound 120]: > 173 µM

The recorded IC50 with Csk (Homo sapiens) for Cc1c(-c2ccc(CO)cc2)sc2c(NN=Cc3cccnc3)ncnc12 [Compound 436] was > 133 µM

Entry Fc1ccc(C=NNc2ncnc3cc(-c4ccccc4)sc23)cc1 [Compound 75] under Csk (Homo sapiens) had IC50 of > 144 µM

Short answer on Csk (Homo sapiens) for Cc1c(-c2ccccc2Cl)sc2c(NN=Cc3cccs3)ncnc12 [Compound 391] , IC50: > 130 µM

Cc1csc2c(NN=Cc3ccc[nH]3)ncnc12 [Compound 30] tested on Csk (Homo sapiens) gave IC50: > 194 µM

Here CC(=O)Nc1ccc(C=NNc2ncnc3c(C)csc23)cc1 [Compound 20] was tested on Csk (Homo sapiens), and its IC50 came to > 154 µM
